Just for reference, ChEMBL document CHEMBL4392880 is where these values come from.

Tested on: BV-2
Test: Cytotoxicity against mouse BV2 cells assessed as effect on cell survival by MTT assay
Format: cell-based
Reported property: Activity

{"columns": ["Chemical smiles", "Measured"],
 "data": [
  ["CC(=O)O[C@H]1CCC(C)(C)[C@H]2CC[C@@]34O[C@@H]3C3=C(C)C(=O)O[C@@H]3C[C@H]4[C@]12C", "Non-Toxic"],
  ["C=C1C[C@@]23CC[C@H]4[C@@](C)(CCC(=O)[C@@]4(C)COC(=O)CCC)[C@@H]2C[C@@H]1[C@@H](O)C3=O", "Non-Toxic"],
  ["C=C1C[C@@]23CC[C@H]4[C@@](C)(CCC(=O)[C@@]4(C)COC(C)=O)[C@@H]2C[C@@H]1[C@@H](O)C3=O", "Non-Toxic"]
]}
